# Assay Info: Plasma and urine pharmacokinetics of berzosertib (LC-MS/MS, non-compartmental analysis)
# Assay type: in vivo, human
# Condition Label: human, plasma, iv, 140 mg/m2, plasma; lead-in period, berzosertib alone, 140 mg/m^2 i.v., n = 4; read-out: T1/2, mean (%CV) (converted)
Property Name: half-life (h)
State the answer as a number, implicitly in h.

Query: Return reported half-life; argument: CNCc1ccc(-c2cc(-c3nc(-c4ccc(S(=O)(=O)C(C)C)cc4)cnc3N)on2)cc1 [berzosertib]
Reply: 20.3

---

# Assay Info: Plasma and urine pharmacokinetics of berzosertib (LC-MS/MS, non-compartmental analysis)
# Type: in vivo, human
# Condition Label: human, intravenous; plasma; cycle 1, day 2, berzosertib and cisplatin, berzosertib 140 mg/m^2, n = 8; read-out: AUC0–∞, mean (%CV)
Property Name: AUC(0-inf) (ng·h/mL)
State the answer as a number, implicitly in ng·h/mL.

Query: Return reported AUC(0-inf); argument: CNCc1ccc(-c2cc(-c3nc(-c4ccc(S(=O)(=O)C(C)C)cc4)cnc3N)on2)cc1 [berzosertib]
Reply: 4870

These entries and their values trace back to paper PMC8367944.
